system: rat; experiment: Clinical chemistry and hematology in rat after intravenous administration; format: in vivo; set-up: unit not given here; details: 2 mpk, 48 h post dose
# maps each entry to its Monocytes (Concentration)
Keep it simple and answer with nothing but the number.

Please report the recorded Monocytes (Concentration) for CCCCCC=CCC=CCCCCCCCCC(CCCCCCCCC=CCC=CCCCCC)OC(=O)CCCN(C)C (centres unmarked) [MC3, reference compound] .
1429

Continuing:
Sample `CCCCCC/C=C\COC(=O)CCCCCCCN(CCO)CCCCCCCC(=O)OC(CCCCCCCC)CCCCCCCC` — what was its Monocytes (Concentration)?
1834

Entry under review: `CCCCCCCCCOC(=O)CCCCCCCN(CCO)CCCCCCCOC(=O)C(CCCCCCCC)CCCCCCCC` . Reported Monocytes (Concentration)?
877

Look up Monocytes (Concentration): `CCCCCCCCCCCOC(=O)CCCCCN(CCO)CCCCCCCC(=O)OC(CCCCCCCC)CCCCCCCC`
2122

Form field: reported Monocytes (Concentration) of `CCCCCCCCCN(CCO)CCCCCCCC(=O)OC(CCCCCCCC)CCCCCCCC`
2103

---

tested on: mice; experiment: Cytokine induction (IL-6, IP-10) in mice after intravenous administration; format: in vivo; set-up: unit not given here; conditions: 0.5 mpk, 6 hours
property label: IL-6
Please respond with just the number, no unit label.

// solved cases for IL-6 follow
Look at this molecule and give its reported IL-6. CCCCCC=CCC=CCCCCCCCCC(CCCCCCCCC=CCC=CCCCCC)OC(=O)CCCN(C)C (centres unmarked) [MC3, reference compound]
124.42

So what does the record say about IL-6 for CCCCCCCCCOC(=O)CCCCCCCN(CCCCCCCC(=O)OC(CCCCCCCC)CCCCCCCC)CC(O)CC (centres unmarked) ?
29.07

I have this molecule here, CCCCCCCCCOC(=O)CCCCCCCN(CCCCCCCC(=O)OC(CCCCCCCC)CCCCCCCC)C1CCCCC1O (centres unmarked) , and I need its recorded IL-6.
90.54

For the next question, use this molecule.
What measured IL-6 goes with `CCCCC/C=C\C/C=C\CCCCCCCCN(CCO)CCCCCCCC(=O)OC(CCCCCCCC)CCCCCCCC` ?
136.18

---

System: rat
Assay: Clinical chemistry and hematology in rat after intravenous administration
Type: in vivo
Parameters: unit not given here
Settings: 2 mpk, 48 h post dose
Protocol: Sample formulations of nanoparticle compositions including different lipids were administered intravenously to rat at a dose of 2 mpk. The expression of various clinical markers was evaluated at 48 h post dose and compared to that induced by administration of MC3 formulations or phosphate buffered saline (PBS). […]
property label: Alanine aminotransferase (Concentration)
I'd appreciate a reply containing only the number, no unit.

Known results for compounds:
For the compound shown here, CCCCCC=CCC=CCCCCCCCCC(CCCCCCCCC=CCC=CCCCCC)OC(=O)CCCN(C)C (centres unmarked) [MC3, reference compound] , give the reported Alanine aminotransferase (Concentration).
339

Fill in: Alanine aminotransferase (Concentration) of `CCCCCC/C=C\COC(=O)CCCCCCCN(CCO)CCCCCCCC(=O)OC(CCCCCCCC)CCCCCCCC` is ___
51.5

Find the recorded Alanine aminotransferase (Concentration) belonging to `CCCCCCCCCCCOC(=O)CCCCCN(CCO)CCCCCCCC(=O)OC(CCCCCCCC)CCCCCCCC` and report it.
52

Would you kindly share the measured Alanine aminotransferase (Concentration) for `CCCCCCCCCN(CCO)CCCCCCCC(=O)OC(CCCCCCCC)CCCCCCCC` ?
53.5

We next turn to a different compound, shown below.
Need Alanine aminotransferase (Concentration) of `CCCCCCCCCOC(=O)CCCCCCCN(CCO)CCCCCCCOC(=O)C(CCCCCCCC)CCCCCCCC` , thanks.
56

---

tested on: mice; assay: Cytokine induction (IL-6, IP-10) in mice after intravenous administration; format: in vivo; parameters: unit not given here; conditions: 0.5 mpk, 6 hours
Reported values of IL-6 for individual entries

Worked examples, 3 compounds total:
# input compound: `CCCCCCCCCOC(=O)CCCCCCCN(CCO)CCCCCCCC(=O)OC(CCCCCCCC)CCCCCCCC` ; wanted: its IL-6
78.76

Could you tell me which IL-6 is on file for `CCCCCCCCC(CCCCCCCC)OC(=O)CCCCCCCN(CCO)CCCCCCCC(=O)OC(CCCCCCCC)CCCCCCCC` ?
69.54

I am curious: what IL-6 value has been reported for `CCCCC/C=C\C/C=C\CCCCCCCCN(CCO)CCCCCCCC(=O)OCCCCCCCCC` ?
28.69

Continuing:
What IL-6 value was documented for this compound, `CCCCCCCCC(CCCCCCCC)OC(=O)CCCCCCCN(CCO)CCCCCC` ?
94.07

So what's the measured IL-6 for this one? `CCCCCCCCCOC(=O)CCCCCCCN(CCCCO)CCCCCCCC(=O)OC(CCCCCCCC)CCCCCCCC`
126.83

Give its IL-6 value. Item: `CCCCCCCCCOC(=O)CCCCCCCN(CCO)CCCCCCCOC(=O)C(CCCCCCCC)CCCCCCCC`
152.51

Sample `CCCCCCCCCCCOC(=O)CCCCCN(CCO)CCCCCC(=O)OCCCCCCCCCCC` — what was its IL-6?
327.15

Could you tell me which IL-6 is on file for `CCCCCCCCCOC(=O)CCCCCCCN(CCO)CCCCCCCCCC(=O)OC(CCCCCCCC)CCCCCCCC` ?
94.00

Can you share its IL-6? I mean this compound: `CCCCCCCCCCCOC(=O)CCCCCN(CCO)CCCCCCCC(=O)OC(CCCCCCCC)CCCCCCCC`
233.45

Report IL-6 for `CCCCCCCC/C=C\COC(=O)CCCCCN(CCO)CCCCCC(=O)OC/C=C\CCCCCCCC` please.
282.82

Would you mind telling me what IL-6 value was observed for CCCCCCCCCOC(=O)CCCCCCCN(CCCCCCCC(=O)OC(CCCCCCCC)CCCCCCCC)CC(C)O (stereo not shown) ?
88.81

Using the record for `CCCCCCCCCCCCCCN(CCO)CCCCCCCC(=O)OC(CCCCCCCC)CCCCCCCC` , report its IL-6.
70.95

Dear colleague, I am looking for the recorded IL-6 of the following compound: `CCCCCCCCCOC(=O)CCCCCCCN(CCO)CCCCCCC(=O)OCC(CCCCCCCC)CCCCCCCC`
6.245

Look at this compound and give its reported IL-6. `CCCCCCCCCOC(=O)CCCCCCCN(CCO)CCCCCCCC(=O)OCCCCCCCCC`
23.38

What IL-6 value was documented for this compound, `CCCCCCCCCCCCN(CCO)CCCCCCCCCCCC(=O)OC` ?
130.82

What value of measured IL-6 is listed for `CCCCCCCCCOC(=O)CCCCCCCN(CCCCCCCC(=O)OC(CCCCCCCC)CCCCCCCC)CCN(C)C` ?
75.29

---

system: mice; experiment: Luc expression (bioluminescence, total flux) after intravenous administration to mice; type: in vivo; details: Luc total flux (Table 3D)
Reported AUC (p/s*h) values are given for each entry in this list.

// worked examples, AUC (p/s*h) included
Report AUC (p/s*h) for `CCCCCCCCCOC(=O)CCCCCCCN(CCCCCCCC(=O)OC(CCCCCCCC)CCCCCCCC)CCOCCO` please.
5.560E+010 p/s*h

Find the recorded AUC (p/s*h) belonging to `CCCCCCCCCOC(=O)CCCCCCCN(CCO)CCCCCCCCCC(CCCCCCCC)CCCCCCCC` and report it.
2.697E+011 p/s*h

Recorded AUC (p/s*h) for `CCCCCCCCCOC(=O)CCCCCCCN(CCO)CCCCCCC/C=C\C(CCCCCCCC)CCCCCCCC` , please?
2.855E+010 p/s*h

# query: AUC (p/s*h) of entry CCCCCC=CCC=CCCCCCCCCC(CCCCCCCCC=CCC=CCCCCC)OC(=O)CCCN(C)C (centres unmarked) [MC3, reference compound]
1.909E+011 p/s*h

Next:
// query AUC (p/s*h) value for entry `CCCCCCCCCC(=O)OCCCCCCCN(CCO)CCCCCCCC(=O)OC(CCCCCCCC)CCCCCCCC`
1.209E+012 p/s*h

// returns reported AUC (p/s*h) for input `CCCCCCCCCOC(=O)CCCCCCCN(CCO)CCN(CCO)CCCCCCCC(=O)OC(CCCCCCCC)CCCCCCCC`
1.355E+008 p/s*h

Endpoint output: AUC (p/s*h) of `CCCCCCCCC(CCCCCCCC)OC(=O)CCCCCCCN(C)CCCCCCCCCCCC(=O)OCCCCC` . Value?
2.704E+011 p/s*h

So what's the measured AUC (p/s*h) for this one? CCCCCCCCCOC(=O)CCCCCCCN(CCCCCCCC(=O)OC(CCCCCCCC)CCCCCCCC)C(C)CO (centres unmarked)
2.481E+011 p/s*h

Reported AUC (p/s*h) for `CCCCCCCCCOC(=O)CCCCCCCN(CCCCCCCC(=O)OC(CCCCCCCC)CCCCCCCC)C(CO)CO` : what is it?
1.170E+011 p/s*h

Need AUC (p/s*h), item `CCCCCCCCC(CCCCCCCC)OC(=O)CCCCCCCN(CCO)CCCCCCCC(=O)OC(C)(C)C`
1.266E+011 p/s*h

Please give the measured AUC (p/s*h) for this compound: `CCCCCCCCCOC(=O)CCCCCCCN(CCO)CCCCCCCC(=O)OC(C)(C)C`
1.211E+007 p/s*h
